Collected MIC, Staph. aureus values appear next to each entry.
- Tested on: Staphylococcus aureus IAM 1011
- test.summary: Antibacterial activity (MIC), agar plate, Staph. aureus
- Type: cell-based
- measurement.context: Staph. aureus IAM 1011, Mueller-Hinton agar, 37° C., 18 to 24 hours; unit assumed

Below, each entry is followed by its recorded MIC, Staph. aureus result.
CC(=O)Nc1ccc(C(=O)N[C@@H](C(=O)N[C@@H]2C(=O)N3[C@@H]2SC(C)(C)[C@@H]3C(=O)O)c2ccccc2)cc1	≥ 12.5 µg/mL
Cc1ncc(CO)c(C=NC(C(=O)N[C@@H]2C(=O)N3[C@@H]2SC(C)(C)[C@@H]3C(=O)O)c2ccccc2)c1O (stereo partly drawn)	≥ 12.5 µg/mL

Pending molecule:
Bench note: what MIC, Staph. aureus did CC(=O)Nc1ccc(C(=O)NCC(=O)N[C@@H](C(=O)N[C@@H]2C(=O)N3[C@@H]2SC(C)(C)[C@@H]3C(=O)O)c2ccccc2)cc1 show? ≥ 12.5 µg/mL
